Observed IC50 values for Urease (Canavalia ensiformis, UniProt P07374) are listed in what follows.
Answers are plain numbers, in µM.

// known answers, use as guide
STRUCTURE NOTATION	PROPERTY NAME	EXPERIMENTAL RESULT
Cn1c2ccccc2c2cc(-c3cc(-c4cccc(N)c4)nc(N)n3)ccc21	IC50	83.7
Cn1c2ccccc2c2cc(-c3cc(-c4ccc(F)cc4F)nc(N)n3)ccc21	IC50	40.2
Cn1c2ccccc2c2cc(-c3cc(-c4ccc(F)c(F)c4)nc(N)n3)ccc21	IC50	45.2

List IC50 for every entry below, keeping the order given.
1. Cn1c2ccccc2c2cc(-c3cc(-c4ccc(Cl)cc4Cl)nc(N)n3)ccc21
2. Cn1c2ccccc2c2cc(-c3cc(-c4ccc(Cl)c(Cl)c4)nc(N)n3)ccc21
3. Cn1c2ccccc2c2cc(-c3cc(-c4ccc(Br)cc4)nc(N)n3)ccc21
4. COc1ccc(-c2cc(-c3ccc4c(c3)c3ccccc3n4C)nc(N)n2)cc1
5. COc1ccc(-c2cc(-c3ccc4c(c3)c3ccccc3n4C)nc(N)n2)cc1OC

Return:
19.4
23.2
95.1
95.4
30.7

List IC50 for every entry below, keeping the order given.
1. COc1cc(OC)c(-c2cc(-c3ccc4c(c3)c3ccccc3n4C)nc(N)n2)c(OC)c1
2. Cn1c2ccccc2c2cc(-c3cc(-c4cc(Cl)ccc4Cl)nc(N)n3)ccc21
3. Cn1c2ccccc2c2cc(-c3cc(-c4ccc([N+](=O)[O-])cc4)nc(N)n3)ccc21

Return:
1. 73.7
2. 28.1
3. 87.2
